# method-summary: Testosterone plasma concentration (radioimmunoassay) and bioavailability after oral application in peanut oil, female dogs; i.m. testosterone as the reference
# Type: in vivo, Hunden
# condition-notes: dog, plasma; oral, in Erdnußöl, dose ≙ 25 mg Testosteron, female dogs ca. 10 kg, testosterone by radioimmunoassay; read-out: Fläche unter Plasma-spiegel (0 – 8 h)
assay-endpoint: AUC at 8 h

[[record]]
compound_string = "C[C@]12CC[C@H]3[C@@H](CCC4=CC(=O)CC[C@@]43C)[C@@H]1CC[C@@H]2O"
measured_result = "10.6 ng·h/mL"

